These measurements were taken from paper PMC6128713.

Assay type: physicochemical
Details: Hexane, 298.15 K
endpoint.name: ΔSsol0, standard molar dissolution entropy (J/mol⋅K)

Here is how some compounds turned out for ΔSsol0, standard molar dissolution entropy.
> print(dat)
                    structure.smiles.string  observed
1  CN1CCc2c(c3cc(F)ccc3n2CCc2n[nH]c(=S)n2C)C1       9.1
2   CN1CCc2c(c3ccccc3n2CCc2n[nH]c(=S)n2C)C1      -6.7

[1] COc1ccc2c(c1)c1c(n2CCc2n[nH]c(=S)n2C)CCN(C)C1
[2] CN1CCc2c(c3cc(Cl)ccc3n2CCc2n[nH]c(=S)n2C)C1
[3] Cc1ccc2c(c1)c1c(n2CCc2n[nH]c(=S)n2C)CCN(C)C1
IN: Rank the items in ascending order with respect to ΔSsol0, standard molar dissolution entropy. Show the ranking through the labels, in the order asked for.
OUT: 1, 3, 2

====

Format: physicochemical
Settings: 1-octanol, 298.15 K
endpoint.name: ΔSsol0, standard molar dissolution entropy (J/mol⋅K)

> print(dat)
                                   molecule  units.symbol  observed
1  COc1ccc2c(c1)c1c(n2CCc2n[nH]c(=S)n2C)CCN(C)C1 [III]       J/mol⋅K      58.7
2  Cc1ccc2c(c1)c1c(n2CCc2n[nH]c(=S)n2C)CCN(C)C1 [Compound II]       J/mol⋅K      32.9
3  CN1CCc2c(c3cc(Cl)ccc3n2CCc2n[nH]c(=S)n2C)C1 [V]       J/mol⋅K      50.0

[1] CN1CCc2c(c3cc(F)ccc3n2CCc2n[nH]c(=S)n2C)C1 [Compound IV]
[2] CN1CCc2c(c3ccccc3n2CCc2n[nH]c(=S)n2C)C1 [Compound I]
IN: Lab note: check whether 1 or 2 has the lower measured ΔSsol0, standard molar dissolution entropy. Kindly state the label of the option you pick.
OUT: 1

====

Type: physicochemical
Conditions: Buffer pH 7.4, 293.15–313.15 K
endpoint.name: B, parameter of the correlation equation lnx=A-B/T

Here is how some compounds turned out for B, parameter of the correlation equation lnx=A-B/T.
> print(dat)
                    structure.smiles.string  observed
1  CN1CCc2c(c3cc(F)ccc3n2CCc2n[nH]c(=S)n2C)C1      2558
2  CN1CCc2c(c3cc(Cl)ccc3n2CCc2n[nH]c(=S)n2C)C1      3799
3  COc1ccc2c(c1)c1c(n2CCc2n[nH]c(=S)n2C)CCN(C)C1      2719

[a] Cc1ccc2c(c1)c1c(n2CCc2n[nH]c(=S)n2C)CCN(C)C1
[b] CN1CCc2c(c3ccccc3n2CCc2n[nH]c(=S)n2C)C1
IN: Of the two listed items, which has the higher B, parameter of the correlation equation lnx=A-B/T? First: a Second: b Kindly state the label of the option you pick.
OUT: a
(a: 3054, b: 1649)

====

Assay type: physicochemical
Details: Hexane, 293.15 K
endpoint.name: mole fraction solubility (x) (x · 10^4)

> print(dat)
                    structure.smiles.string                 endpoint.name  observed
1  CN1CCc2c(c3cc(F)ccc3n2CCc2n[nH]c(=S)n2C)C1  mole fraction solubility (x)      3.85
2  CN1CCc2c(c3cc(Cl)ccc3n2CCc2n[nH]c(=S)n2C)C1  mole fraction solubility (x)      5.42
